Catalogue of EC50 values
Molecular target: T1, human Claudin18.2 (human, UniProt P56856-2 1-261)
T1 construct: whole, on cells; also called CLDN18.2; HEK293T-Claudin18.2 (human)
Experiment: cell-based ELISA on fixed HEK293T-Claudin18.2 (human) cells
Numbers only; they are read as ng/mL.

# input Fill in reported EC50 for this entry: 23F2F2 (antibody, V domains shown, Murine monoclonal antibody purified from hybridoma supernatant) VH: QVQLKESGGGLVQPGGSMKLSCAASGFTFSDAWMNWVRQSPEKGLEWVAEIRNKADYHATHYVESVTGRFTISRDDSKSSVYLQMNRLRAEDTGIYYCTRNYGSRFDYWGQGTTLTVSS VL: DIVETQSPSSLTVTAGEKVTMSCKSSQSLLNSGNQRNYLTWYQQKPGHPPKLLIYWASTRESGVPDRFTGSGSGTDFTLTVTSVQAEDLAVYYCQNDYFYPLAFGTGTKLELK
# output 6.02

# input Fill in reported EC50 for this entry: 1A6G10 (antibody, V domains shown, Murine monoclonal antibody purified from hybridoma supernatant; also called 1A6G11) VH: QVQLKESGGGLVKPGGSLKLSCAASGFTFSSYAMSWVRQTPEKRLEWVAAIHSNGGSTYNSDTMRDRFTISRDHAKNTLYLQMSSLRSEDTALYYCGRQSFGNALDYWGQGTSVTVSS VL: DIQMTQSPSSLTVTAGEKVTLTCKSSQSLLNSGNQKNYLTWYQQKPGQPPKLLIYWASTRESGVPDRFTGSGSGTFFTLTISSVQAEDLAVYFCQNDYVYPFTFGAGTQLELK
# output 5.02

# input Fill in reported EC50 for this entry: 2D3A11 (antibody, V domains shown, Murine monoclonal antibody purified from hybridoma supernatant) VH: EVQLQQSGPELVKPGASVRMSCKASGYTFTSYVVHWVKQKPGQGLEWIGYINPYNADSKYNERFKGKATLTSDKSSNSAYMELSSLTSEDSAVYYCSRSYYGNSFDVWGAGTTVTVSS VL: DIVMTQSPSSLTVTTGEKVTMSCKSSQSLLNSGNQKNYLTWYQQKPGQSPKLLFFWASTRQSGVPDRFTGSGSGTYFTLTISSVQAEDLAVYYCQNDYYFPFTFGTGTKLEIK
# output 8.14

# input Fill in reported EC50 for this entry: 32F7A6 (antibody, V domains shown, Murine monoclonal antibody purified from hybridoma supernatant) VH: QIQLVQSGPELRKPGETVKISCKASGYTFTAYTMGWVKQAPGKGLEWMAWINTYSGVPTYAADFKGRFAFSLETSASTAYLLINNLKNEDTATYFCARGVRGNSMDYWGQGTSVTVSS VL: DIVETQSPSSLTVTVGERVTLSCKSSQSLLNSGNQRNYLTWSQQKPGQPPKLLIYWASTRESGVPNRFTGGGSGTYFTLTISSVQVEDLAVYYCQNTYSFPFTFGTGTKLEIK
# output 2.4
